Experiment: qHTS assay to identify small molecule antagonists of the TGF-beta/Smad signaling pathway - cell viability counter screen (AID 1346824); note: % is set by controls: 0 for no effect and ±100 for the full control effect; nearly all actives have a fitted effect of over 50% in size
Conditions: SBE-bla HEK293T viability, CellTiter-Glo luminescence; series mostly up to 76.8 µM
Inconclusive results are not listed. The source made the active and inactive calls. Calls come from the whole dose curve; as a rule, active = well fitted cell-killing curve with a large enough effect in the repeat runs; inconclusive = weak or mixed curves; inactive = flat fitted curve, though single readings scatter.
REPORTED_ENDPOINT: viability change, negative = cytotoxic

>>> assay_value("CC(C)(C)C(=O)c1ccccc1")
"inactive"
>>> assay_value("CC(=O)c1ccccc1[N+](=O)[O-]")
"inactive"
>>> assay_value("CCCCS(=O)(=O)N[C@@H](Cc1ccc(OCCCCC2CCNCC2)cc1)C(=O)O")
"inactive"

* * *

Assay: qHTS assay to test for compound auto fluorescence at 535 nm (green) in HEK293 cells (AID 720680); note: % is set by controls: 0 for no effect and ±100 for the full control effect
Details: green autofluorescence 485/535 nm; series mostly up to 91.3 µM
Active and inactive are the calls of the source. Calls come from the whole dose curve; as a rule, active = well fitted curve in the direction sought with a large enough effect in the repeat runs; inconclusive = weak or mixed curves; inactive = flat fitted curve, though single readings scatter.
REPORTED_ENDPOINT: fluorescence, % of fluorescein

Below, 4 compounds whose answers are already recorded.
>>> assay_value("C[N+]1(CC2COC(c3ccccc3)(c3ccccc3)O2)CCCCC1 (stereo unspecified)")
"inactive"
>>> assay_value("O=C(O)CC(C(=O)O)S(=O)(=O)O (stereo unspecified)")
"inactive"
>>> assay_value("CCCCCCCCCCOc1cc2c(=O)c(C(=O)OCC)c[nH]c2cc1OCC")
"inactive"
>>> assay_value("CC1(C)[C@@H]2CC[C@@]1(C)[C@H](O)C2")
"inactive"

Ask: For the compound CC[C@H]1OC(=O)[C@H](C)[C@@H](O[C@H]2C[C@@](C)(OC)[C@@H](O)[C@H](C)O2)[C@H](C)[C@@H](O[C@@H]2O[C@H](C)C[C@H](N(C)C)[C@H]2O)[C@](C)(OC)C[C@@H](C)C(=O)[C@H](C)[C@@H](O)[C@]1(C)O , report fluorescence, % of fluorescein.
Reply: inactive

Ask: Specify reported fluorescence, % of fluorescein for the compound shown: Cc1ccc(-c2ncc(Cl)cc2-c2ccc(S(C)(=O)=O)cc2)cn1
Reply: inactive

Ask: Note fluorescence, % of fluorescein for the compound shown: CC(=O)c1ccc2ccccc2c1
Reply: inactive

Ask: Give the reported fluorescence, % of fluorescein for this compound. CC[N+](CC)(CC(=O)Nc1c(C)cccc1C)Cc1ccccc1 (tested in a mixture with another compound)
Reply: inactive

Ask: Provide measured fluorescence, % of fluorescein value, entry: CN1CCC(=C2c3ccccc3CCc3cccnc32)CC1
Reply: inactive

Ask: Output measured fluorescence, % of fluorescein for this item: COc1cccc(OC)c1C(=O)N[C@@H]1C(=O)N2[C@@H]1SC(C)(C)[C@@H]2C(=O)O
Reply: inactive

Ask: For the compound CCOc1ccc2nc(S(N)(=O)=O)sc2c1 , give its reported fluorescence, % of fluorescein.
Reply: inactive

Ask: # return recorded fluorescence, % of fluorescein for entry CCCCS(=O)(=O)N[C@@H](Cc1ccc(OCCCCC2CCNCC2)cc1)C(=O)O
Reply: inactive

Ask: Output measured fluorescence, % of fluorescein for this item: O=S(=O)(O)c1cccc2ccccc12
Reply: inactive

Ask: Provide only the value of recorded fluorescence, % of fluorescein for CC(C)(C#N)Nc1nc(Cl)nc(NC2CC2)n1
Reply: inactive

Ask: Answer with reported fluorescence, % of fluorescein of CC(=O)N1C[C@H](O)C[C@H]1C(=O)O
Reply: inactive

Ask: Identify fluorescence, % of fluorescein associated with the compound C=CCOCC(O)CO (stereo unspecified)
Reply: inactive

* * *

Molecular target: Peroxisome proliferator-activated receptor gamma (Homo sapiens) (UniProt P37231)
Sequence (P37231 whole entry, looked up): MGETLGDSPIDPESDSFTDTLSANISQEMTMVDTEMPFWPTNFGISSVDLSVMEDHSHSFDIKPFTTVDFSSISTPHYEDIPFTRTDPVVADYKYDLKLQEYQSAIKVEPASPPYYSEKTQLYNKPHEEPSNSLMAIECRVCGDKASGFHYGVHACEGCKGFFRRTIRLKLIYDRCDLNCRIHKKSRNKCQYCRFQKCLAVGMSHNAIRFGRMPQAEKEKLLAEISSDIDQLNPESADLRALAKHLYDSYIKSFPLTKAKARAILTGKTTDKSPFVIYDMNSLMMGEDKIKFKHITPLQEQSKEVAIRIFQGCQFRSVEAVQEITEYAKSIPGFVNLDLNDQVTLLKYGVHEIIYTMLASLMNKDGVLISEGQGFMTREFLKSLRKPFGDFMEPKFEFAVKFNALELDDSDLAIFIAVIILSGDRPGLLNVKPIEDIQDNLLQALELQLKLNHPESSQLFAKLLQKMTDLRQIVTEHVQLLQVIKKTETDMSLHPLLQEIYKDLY
Assay: qHTS assay to identify small molecule agonists of the peroxisome proliferator-activated receptor gamma (PPARg) signaling pathway (AID 743094); note: potency is the fitted concentration of half-maximal effect; for activation: % is set by controls: 0 for no effect and ±100 for the full control effect
Conditions: HEK293H PPARg-UAS-bla, beta-lactamase FRET ratio, 17 h; series mostly up to 57 µM
Results filed as inconclusive are left out. Activity calls are given as the source filed them. The call rests on the fitted dose curve; in most records, active means well fitted activation curve with a large enough effect in the signal ratio in the repeat runs (not every such curve was filed as active); inconclusive means weak or mixed curves, or effect the other way; inactive means no such curve, though single readings can be large or run the other way; the % refers to the signal ratio.
REPORTED_ENDPOINT: Potency

Below are worked cases with known answers.
>>> assay_value("CC(=O)c1cnccn1")
"inactive"
>>> assay_value("CC1=C(C/C=C(\\C)CCC[C@H](C)CCC[C@H](C)CCCC(C)C)C(=O)c2ccccc2C1=O")
"inactive"
>>> assay_value("NS(=O)(=O)Cc1noc2ccccc12")
"inactive"
>>> assay_value("CCCCOCCOC(=O)CCCCCCCCC(=O)OCCOCCCC")
"inactive"
>>> assay_value("CCCCc1nc(Cl)c(CO)n1Cc1ccc(-c2ccccc2-c2nn[nH]n2)cc1")
"23.9 µM (active)"
>>> assay_value("CCCCN1C=CN(C)C1")
"inactive"
>>> assay_value("O=S(=O)(O)c1cccc2ccccc12")
"inactive"
>>> assay_value("CC(C)(N)C#N")
"inactive"
>>> assay_value("CC(C)[C@H]1CC[C@@H](C)CC1=O")
"inactive"
>>> assay_value("COC(=O)Nc1ccc(Cl)c(Cl)c1")
"inactive"

Ask: Specify reported Potency for the compound shown: CCCC(C)C(=O)OCC (centres undefined)
Reply: inactive

Ask: Look up Potency of OCCCCCO and report it.
Reply: inactive

Ask: In one line, give reported Potency of the entry C=COCC1CCC(COC=C)CC1 (centres undefined) .
Reply: inactive

Ask: State its Potency: Nc1c2c(nc3c1CCC3)CCCC2
Reply: inactive

* * *

Target: Vitamin D3 receptor (Homo sapiens) (UniProt P11473)
Sequence (P11473 whole entry, looked up): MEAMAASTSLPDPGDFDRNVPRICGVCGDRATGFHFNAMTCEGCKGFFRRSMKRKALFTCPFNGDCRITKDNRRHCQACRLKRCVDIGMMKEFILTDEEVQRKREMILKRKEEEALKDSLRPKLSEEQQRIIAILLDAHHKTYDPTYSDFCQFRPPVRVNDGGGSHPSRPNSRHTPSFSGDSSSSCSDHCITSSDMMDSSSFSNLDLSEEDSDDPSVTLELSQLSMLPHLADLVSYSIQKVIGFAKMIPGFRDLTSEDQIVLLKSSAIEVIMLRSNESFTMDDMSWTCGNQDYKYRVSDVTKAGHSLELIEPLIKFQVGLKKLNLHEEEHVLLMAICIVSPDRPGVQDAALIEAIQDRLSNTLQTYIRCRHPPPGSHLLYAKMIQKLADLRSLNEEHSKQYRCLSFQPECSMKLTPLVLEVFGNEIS
Experiment: qHTS assay to identify small molecule agonists of the vitamin D receptor (VDR) signaling pathway (AID 743222); note: % is set by controls: 0 for no effect and ±100 for the full control effect
Conditions: HEK293T VDR-UAS-bla, beta-lactamase FRET ratio, 16 h; series mostly up to 63.5 µM
Inconclusive results are not listed. The source made the active and inactive calls. Calls come from the whole dose curve.
REPORTED_ENDPOINT: activation

// worked examples, activation included
>>> assay_value("C=COC(=O)C(C)(CC)CCC(C)C (configuration not stated)")
"inactive"
>>> assay_value("[Ca+2]")
"inactive"
>>> assay_value("Cc1ccnc(NS(=O)(=O)c2ccc(N)cc2)n1")
"inactive"
>>> assay_value("Nc1ccncc1N")
"inactive"
>>> assay_value("CO[C@@]1(NC(=O)C(C(=O)O)c2ccc(O)cc2)C(=O)N2C(C(=O)O)=C(CSc3nnnn3C)CO[C@@H]21 (some centres not stated)")
"inactive"
>>> assay_value("CC1=NN(c2cc(S(=O)(=O)O)ccc2Cl)C(=O)C1N=Nc1ccccc1 (configuration not stated)")
"inactive"

We now examine a further compound.
Ask: Supply recorded activation for CC(C)(C)C(=O)c1ccccc1 here.
Reply: inactive

* * *

Assay: qHTS assay to identify small molecule agonists of the RXR signaling pathway - cell viability counter screen (AID 1159529);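 note: HEK 293T cells carrying an RXR-alpha UAS beta-lactamase reporter; % is set by controls: 0 for no effect and ±100 for the full control effect; nearly all actives have a fitted effect of over 50% in size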
Conditions: RXR-alpha-bla HEK293T viability, CellTiter-Glo, 16 h; series mostly up to 76.8 µM
Results filed as inconclusive are left out. Activity calls are given as the source filed them. The call rests on the fitted dose curve; in most records, active means well fitted cell-killing curve with a large enough effect in the repeat runs; inconclusive means weak or mixed curves, or effect the other way; inactive means no such curve, though single readings can be large or run the other way.
REPORTED_ENDPOINT: activity change, negative = cytotoxicity

>>> assay_value("N[C@H](C(=O)O)[C@@H](O)c1ccc(O)c(O)c1")
"inactive"
>>> assay_value("CC[C@H]1OC(=O)[C@H](C)[C@@H](O[C@H]2C[C@@](C)(OC)[C@@H](O)[C@H](C)O2)[C@H](C)[C@@H](O[C@@H]2O[C@H](C)C[C@H](N(C)C)[C@H]2O)[C@](C)(OC)C[C@@H](C)C(=O)[C@H](C)[C@@H](O)[C@]1(C)O")
"inactive"
>>> assay_value("CCCCc1ccc2c(n1)[C@@H](c1ccc(OC)cc1C[C@H](C)C(=O)O)[C@H](C(=O)O)[C@H]2c1ccc2c(c1)OCO2")
"inactive"

* * *

Test: qHTS assay to identify small molecule antagonists of the androgen receptor (AR) signaling pathway using the MDA cell line - cell viability counter screen (AID 743041; note: % is set by controls: 0 for no effect and ±100 for the full control effect; nearly all actives have a fitted effect of over 45% in size)
Conditions: MDA-kb2 viability, CellTiter-Fluor, 16 h, cells co-treated with R1881 androgen agonist; series mostly up to 70.3 µM
Records with an inconclusive call do not appear. The source made the active and inactive calls. The call rests on the fitted dose curve; in most records, active means well fitted cell-killing curve with a large enough effect in the repeat runs; inconclusive means weak or mixed curves, or effect the other way; inactive means flat fitted curve, though single readings scatter.
REPORTED_ENDPOINT: viability change, negative = cytotoxic

Use these answered entries as a reference point.
>>> assay_value("CCOC(=O)COC(=O)c1ccccc1C(=O)OCC")
"inactive"
>>> assay_value("[Ca+2]")
"inactive"
>>> assay_value("CCCCOC(=O)CCC(C)=O")
"inactive"
>>> assay_value("CCCCCCCCN1CCCC1=O")
"inactive"
>>> assay_value("CCCCCCC#CC(=O)OC")
"inactive"

Ask: Give viability change, negative = cytotoxic for the following compound: COc1ccnc(CS(=O)c2nc3cc(OC(F)F)ccc3[nH]2)c1OC (configuration not stated)
Reply: inactive

Ask: Query viability change, negative = cytotoxic for CC(CO)(CO)[N+](=O)[O-]
Reply: inactive

Ask: Please give the documented viability change, negative = cytotoxic of O=C(O)Cc1csc(-c2ccc(Cl)cc2)n1
Reply: inactive

* * *

Assay: qHTS assay to identify small molecule antagonists of the estrogen related receptor (ERR) signaling pathway from Tox21 library - cell viability counter screen (AID 1224834); note: % is set by controls: 0 for no effect and ±100 for the full control effect; nearly all actives have a fitted effect of over 30% in size
Conditions: ERR reporter cells viability, CellTiter-Fluor, 17.5 h; series mostly up to 92.4 µM
Inconclusive results are not listed. Active and inactive are the calls of the source. Calls come from the whole dose curve; as a rule, active = well fitted cell-killing curve with a large enough effect in the repeat runs; inconclusive = weak or mixed curves; inactive = flat fitted curve, though single readings scatter.
REPORTED_ENDPOINT: viability change, negative = cytotoxic

These recorded examples may help you get a feel for the data.
>>> assay_value("CC(=O)NC(=O)c1ccccc1O")
"inactive"
>>> assay_value("CCCCc1nc(Cl)c(CO)n1Cc1ccc(-c2ccccc2-c2nn[nH]n2)cc1")
"inactive"
>>> assay_value("COc1ccc2cc1Oc1cc3c(cc1OC)CC[N+](C)(C)[C@H]3Cc1ccc(cc1)Oc1c(OC)c(OC)cc3c1[C@@H](C2)[N+](C)(C)CC3")
"inactive"
>>> assay_value("NC(=O)NC1N=C([O][Al])NC1=O (stereo unspecified)")
"inactive"
>>> assay_value("CC1(C)OC[C@@H](COC(=O)CCc2ccc(OC[C@@H](O)CNCCNC(=O)N3CCOCC3)cc2)O1")
"inactive"
>>> assay_value("CC(C)(N)C#N")
"inactive"

Ask: For the molecule CN1CCN(c2cc3c(nn2)Oc2ccccc2N3C)CC1 , give its measured viability change, negative = cytotoxic value.
Reply: 4.08% [at 19 µM] (inactive)

Ask: Consider the molecule CC(C)NNC(=O)c1ccncc1 and give its recorded viability change, negative = cytotoxic.
Reply: inactive

Ask: Give me measured viability change, negative = cytotoxic, please, for this molecule: CC[N+](C)(CC)CCOC(=O)C1c2ccccc2Oc2ccccc21
Reply: inactive

Ask: Given the molecule C=C(C)C(=O)OCC1CCCO1 (stereo unspecified) , write its reported viability change, negative = cytotoxic.
Reply: inactive

Ask: Indicate the recorded viability change, negative = cytotoxic value for this molecule: CCC(C)(CN(C)C)OC(=O)c1ccccc1 (stereo unspecified)
Reply: inactive

Ask: State its viability change, negative = cytotoxic: C[N+](C)(CCOc1ccccc1)Cc1cccs1
Reply: inactive
